Hello, the source for this data is the supplement of paper PMC10567573, in case you need it.

variants and their reported protein stability index
B1: ZNF511 (parent)
chain: YEHHYHTLHGNVCSFCKRAFPSGH

- Variants of: B1
- TEST DESCRIPTION: protein stability index of a GFP-peptide fusion (GPS, HEK-293T) (PSI 1-6); higher = more stable;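 note: lentivirally expressed fusions sorted by FACS into six bins by GFP to DsRed ratio, PSI derived from sequencing read proportions per bin multiplied by bin number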
- RUN CONDITIONS: c terminus: a fixed tail appended
Lab note: jot down the number only; don't add units.

Below are worked cases with known answers.
INSERT INTO results (variant, reading) VALUES
  ('P21H', 2.32),
  ('H3E', 2.9),
  ('A19D', 2.42);

Field request: protein stability index | item: S14D
2.4

Can you look up the measured protein stability index of A19K for me?
2.11

// protein stability index lookup, key: F15M
2.54

Reported protein stability index, variant L8A : ____
2.47

Please give the measured protein stability index for this variant: K17T
2.02

// protein stability index lookup, key: N11F
2.6

Can you look up the measured protein stability index of H4M for me?
2.52

What measured protein stability index goes with E2P ?
1.54

// returns reported protein stability index for input V12Q
2.66
